Parameter ELISA reading: see the listing below.
- tested.system: T1, Human 20.1 peptide (human)
- T1 construct: synthetic peptide from the RB exon
- T1 peptide: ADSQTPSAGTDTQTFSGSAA
- assay.remarks: ELISA, well supernatant on coated peptide
Enter the number alone.

Ask: Fill in ELISA reading for record antibody in the supernatant of B cell culture well 227E10 (antibody, V domains shown) VH: QVHLVESGGGLVKPGGSLRLSCAASGFTFINYYMTWIRQAPGKGLEWVSYISLSGSTIYYADSVKGRFTISRDNAKNSLFLQMNSLRAEDTAVYYCARRAATVTTFDYWGQGTLVTVSS VL: EIVMTQSPATLSVSPGERATLSCRASQSVRSNLAWSQQKPGQAPRLLIYGASTRATGIPARFSGSGSGTEFTLTISSLQSEDFAVYYCQQYNNWPLTFGGGTKVEIK
Result: 0.1

Ask: Fill in ELISA reading for record antibody in the supernatant of B cell culture well 250F2 (antibody, V domains shown, recombinant 662 came from this well) VH: QVQLVESGGDLVKPGGSLRLSCAASGFSFSGYYLSWIRQAPGKGLEWVSYISLSGSFIKYADSVKGRFTISRDNAKKTLHLQMNSLRAEDTAVYYCARRTGTTTVFDYWGQGTLVTVSS VL: EVVMTQSPATLSVSPGERATLSCRASQSVNSNLAWYQQRPGQAPRLLIYGASTRVTGIPARFSGSGSGTEFTLTISSLQSEDFAVYYCQQYNNWPLTFGGGTKVEIK
Result: 0.1

Ask: Fill in ELISA reading for record antibody in the supernatant of B cell culture well 283B2 (antibody, V domains shown, recombinant 648 came from this well) VH: QVQLVESGGGLVKPGGSLRLSCAASGFTFNVYYMNWIRQAPGKGLEWVSYISTSSSAIYYADSVKGRFTISRDNAKNSLYLQMNSLRAEDTAVYYCARRTGSTTVFDYWGQGTLVTVSS VL: EIVLTQSPATLSVSPGERATLSCRASQSINNNLAWYQQKPGQAPRLLIYGASTRATGIPAKFSGSGSGTEFTLTISSLQSENFAVYYCQQYNKWPLTFGGGTKVEIK
Result: 0.1
